# Tgt: human recombinant PDE9 protein (Homo sapiens, UniProt O76083)
# Construct: made in house; host or cells: COS-1 cells, transient transfection with pcDNA 3.1 (+); supernatant of the homogenate, not purified
# Sequence (O76083 whole entry): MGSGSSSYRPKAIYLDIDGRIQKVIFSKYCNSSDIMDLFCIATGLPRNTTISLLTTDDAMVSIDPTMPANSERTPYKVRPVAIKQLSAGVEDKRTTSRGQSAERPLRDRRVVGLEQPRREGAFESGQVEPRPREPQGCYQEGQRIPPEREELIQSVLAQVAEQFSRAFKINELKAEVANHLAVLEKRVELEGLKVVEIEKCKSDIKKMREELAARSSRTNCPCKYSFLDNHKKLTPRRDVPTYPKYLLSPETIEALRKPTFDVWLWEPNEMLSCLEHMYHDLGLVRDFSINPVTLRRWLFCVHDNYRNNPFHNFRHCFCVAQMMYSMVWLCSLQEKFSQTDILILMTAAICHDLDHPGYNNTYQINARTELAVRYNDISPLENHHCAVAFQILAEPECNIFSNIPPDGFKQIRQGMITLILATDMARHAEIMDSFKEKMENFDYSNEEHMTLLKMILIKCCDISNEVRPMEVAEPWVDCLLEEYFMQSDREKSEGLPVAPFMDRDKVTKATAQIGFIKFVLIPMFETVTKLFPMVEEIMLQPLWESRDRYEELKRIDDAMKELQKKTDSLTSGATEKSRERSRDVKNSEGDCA
# Test name: Measurement of PDE9-inhibiting activity ([3H]-cGMP hydrolysis)
# Format: biochemical
# Condition notes: Tables A and C; read-out: Inhibiting Activity (IC50 value) PDE9
IC50 strictly less than 40 nM = true. Otherwise false.

CN(C)C(=O)c1cc2[nH]c(=O)c3cnc(C4CCCCC4)n3c2cc1Cl true

Would you kindly verify if IC50 of CCOc1cc2c(cc1C(=O)N(C)C)[nH]c(=O)c1cnc(C3CCCCC3)n12 is strictly less than 40 nM?
true

For Cc1c(C(=O)O)sc2nc(Cc3ccc(Cl)c(Cl)c3)[nH]c(=O)c12 , is the recorded IC50 below the cut-off of 40 nM?
true

Below 40 nM on IC50? Entry Cc1c(C(=O)O)sc2nc(Cc3cccc(C(F)(F)F)c3)[nH]c(=S)c12
true

Lab note: confirm whether the reported IC50 for this compound is below 40 nM, equality not counting. compound: O=C(c1cc2[nH]c(=O)c3cnc(C4CCCCC4)n3c2cc1Cl)N1CCN(CCO)CC1
true

Hello, is IC50 of the following compound strictly smaller than 40 nM? O=C(O)/C=C/c1ccc2c(=O)[nH]c3cc(C(F)(F)F)ccc3n12
true

Find out if reported IC50 for Cc1c(C(=O)O)sc2nc(Cc3ccc(F)c(C(F)(F)F)c3)[nH]c(=O)c12 is less than 40 nM
false

Please check: IC50 for Cc1c(C(=O)O)sc2nc(Cc3cc(F)ccc3F)[nH]c(=O)c12 , strictly under 40 nM or not?
false

Record CC(C)c1ncc2c(=O)[nH]c3cc(Cl)ccc3n12 : is its IC50 strictly below 40 nM?
true

====

# Residual urine volume volume change per record follows
# System: partial urethra obstruction model in guinea pigs
# Test name: Dysuria pathological model: partial urethra obstruction model, cystometry
# Format: in vivo, Hartley female guinea pigs
# Condition notes: guinea pig, i.v., 3 mg/kg
# Method: Three-four weeks old Hartley female guinea pigs (Japan SLC, Inc.) were given celiotomy under anesthesia with pentobarbital (30 mg/kg i.p.) and in their urethra to the peripheral side by 1-2 mm from the bladder neck, each a polyethylene tube of 1.4 mm in width and 2.0 mm in inner diameter was placed. […]
Only the number, expressed in mL, is required.

Use these answered entries as a reference point.
Cc1c(C(=O)O)sc2nc(Cc3cccc(Cl)c3)[nH]c(=S)c12 -0.75
O=C(O)c1cc2c(=O)[nH]c(CC3=CCCC3)nc2s1 -0.49

# lookup: Residual urine volume volume change of Cc1c(C(=O)O)sc2nc(Cc3ccc(Cl)c(Cl)c3)[nH]c(=O)c12
-0.30

====

# Tgt: human recombinant PDE9 protein (Homo sapiens, UniProt O76083)
# Construct: made in house; host or cells: COS-1 cells, transient transfection with pcDNA 3.1 (+); supernatant of the homogenate, not purified
# Test name: Measurement of PDE9-inhibiting activity ([3H]-cGMP hydrolysis)
# Type: biochemical
# Condition notes: Tables A and C; read-out: Inhibiting Activity (IC50 value) PDE9
log10 of IC50: recorded values
Note the log scale: values are log10 of IC50 expressed in nM.

Worked cases, answers included:
Compound	Tgt	log10 of IC50
CCc1ccc2c(c1)[nH]c(=O)c1cnc(CCC(=O)O)n12 [C-7]	human recombinant PDE9 protein (Homo sapiens, UniProt O76083)	0.30
Cc1c(C(=O)O)sc2nc(Cc3cccs3)[nH]c(=O)c12 [A-2]	human recombinant PDE9 protein (Homo sapiens, UniProt O76083)	1.60
Cc1c(C(=O)O)sc2nc(Cc3cccs3)[nH]c(=S)c12 [A-23]	human recombinant PDE9 protein (Homo sapiens, UniProt O76083)	1.49
O=C(O)c1cc2c(=O)[nH]c(Cc3ccsc3)nc2s1 [A-15]	human recombinant PDE9 protein (Homo sapiens, UniProt O76083)	1.15
O=C(O)c1cc2c(=O)[nH]c(Cc3ccc(Cl)c(Cl)c3)nc2s1 [A-20]	human recombinant PDE9 protein (Homo sapiens, UniProt O76083)	0.95

As a next step, examine the compound that follows.
Item Cc1c(C(=O)O)sc2nc(Cc3ccsc3)[nH]c(=O)c12 [A-1] has what recorded log10 of IC50?
1.34

====

# Tgt: human recombinant PDE5 protein (Homo sapiens, UniProt O76074)
# Construct: made in house; host or cells: COS-1 cells, transient transfection with pcDNA 3.1 (+); supernatant of the homogenate, not purified
# Test name: Measurement of PDE5-inhibiting activity
# Format: biochemical
# Condition notes: Tables A and C; read-out: Inhibiting Activity (IC50 value) PDE5
# Procedure: PCR condition: [94° C., 2 min]×1 cycle, [(94° C., 30 sec), (65° C., 30 sec), (68° C., 3 min)]×25 cycles, [68° C., 6 min]×1 cycle Thus obtained hsPDE5A1 fragment was given a restricted enzymatic treatment with XBaI and EcoRI, and thereafter inserted into pcDNA 3.1 (+) expression vector (Invitrogen) to let it serve as a human PDE5 expression vector. […]
IC50 listing for selected compounds.

CCc1ccc2c(c1)[nH]c(=O)c1cnc(CCC(=O)O)n12 > 10 µM
O=C(O)c1cc2c(=O)[nH]c(Cc3ccc(Cl)c(Cl)c3)nc2s1 2.28 µM
Cc1c(C(=O)O)sc2nc(Cc3cccs3)[nH]c(=S)c12 1.54 µM
O=C(O)c1cc2c(=O)[nH]c(Cc3cccs3)nc2s1 41.2 µM
Cc1c(C(=O)O)sc2nc(Cc3cccc(Cl)c3)[nH]c(=S)c12 1.11 µM
Cc1c(C(=O)O)sc2nc(CC3=CCCCC3)[nH]c(=S)c12 0.07 µM

For the compound O=C(O)c1cc2c(=S)[nH]c(Cc3ccc(Cl)c(Cl)c3)nc2s1 , what IC50 is on record?
0.721 µM

Field request: IC50 | item: Cc1c(C(=O)O)sc2nc(Cc3ccccc3SC(F)(F)F)[nH]c(=O)c12
20 µM

What value of IC50 has been reported for the following compound? O=C(O)c1cc2c(=O)[nH]c(Cc3ccsc3)nc2s1
34.9 µM

Returns the measured IC50 for the input compound. Input: O=C(O)c1cc2c(=O)[nH]c(Cc3cccc(C(F)(F)F)c3)nc2s1
30.2 µM

====

# Tgt: human recombinant PDE9 protein (Homo sapiens, UniProt O76083)
# Construct: made in house; host or cells: COS-1 cells, transient transfection with pcDNA 3.1 (+); supernatant of the homogenate, not purified
# Test name: Measurement of PDE9-inhibiting activity ([3H]-cGMP hydrolysis)
# Format: biochemical
# Condition notes: Tables A and C; read-out: Inhibiting Activity (IC50 value) PDE9
Just a reminder that ties go to not satisfied: only IC50 strictly below 5 nM counts as satisfied.

Compound	Label class
O=C(O)CCc1ncc2c(=O)[nH]c3cc(C(F)(F)F)ccc3n12 [C-8]	satisfied
O=C(O)c1cc2c(=O)[nH]c(Cc3cccs3)nc2s1 [A-16]	not satisfied
Cc1c(C(=O)O)sc2nc(CC3=CCCCC3)[nH]c(=O)c12 [A-14]	not satisfied
Cc1c(C(=O)O)sc2nc(Cc3cccc(Cl)c3)[nH]c(=O)c12 [A-4]	not satisfied

Please determine if O=C(O)c1cc2c(=O)[nH]c(CC3=CCCC3)nc2s1 [A-21] is below 5 nM in terms of IC50.
not satisfied

====

# Tgt: human recombinant PDE5 protein (Homo sapiens)
# Construct: made in house; host or cells: COS-1 cells, transient transfection with pcDNA 3.1 (+); supernatant of the homogenate, not purified
# Test name: Measurement of PDE5-inhibiting activity
# Format: biochemical
# Condition notes: Tables A and C; read-out: Inhibiting Activity (IC50 value) PDE5
Measured property: IC50 (µM)
Write the answer as a number in µM, unit excluded.

Compound	IC50 [µM]
CC(C)c1ncc2c(=O)[nH]c3cc(Cl)ccc3n12 [C-1]	1.26

// returns reported IC50 for input O=C(O)c1cc2c(=O)[nH]c(Cc3cccc(Cl)c3)nc2s1 [A-18]
15.8

For the compound O=C(O)c1cc2c(=S)[nH]c(Cc3ccccc3)nc2s1 [A-32] , what IC50 is on record?
8.87

I am curious: what IC50 value has been reported for Cc1c(C(=O)O)sc2nc(Cc3ccsc3)[nH]c(=S)c12 [A-22] ?
1.64

For O=C(O)/C=C/c1ccc2c(=O)[nH]c3cc(C(F)(F)F)ccc3n12 [C-10] , what is its reported IC50?
4.56

Any idea what IC50 was measured for O=C(O)c1cc2c(=O)[nH]c(Cc3ccccc3)nc2s1 [A-17] ?
34.4

// lookup IC50 for Cc1c(C(=O)O)sc2nc(Cc3cccc(Br)c3)[nH]c(=S)c12 [A-25]
0.712

Look up IC50: Cc1c(C(=O)O)sc2nc(Cc3ccc(Cl)c(Cl)c3)[nH]c(=O)c12 [A-7]
0.915

Which measured IC50 value corresponds to Cc1c(C(=O)O)sc2nc(Cc3ccc(Cl)c(Cl)c3)[nH]c(=S)c12 [A-28] ?
0.073

Look up IC50 for this compound: O=C(O)c1cc2c(=O)[nH]c(CC3=CCCC3)nc2s1 [A-21]
12.1

What value of IC50 has been reported for the following compound? Cc1c(C(=O)O)sc2nc(Cc3ccc(F)c(C(F)(F)F)c3)[nH]c(=O)c12 [A-9]
18.9

May I ask what IC50 has been recorded for Cc1c(C(=O)O)sc2nc(Cc3cccc(Cl)c3)[nH]c(=O)c12 [A-4] ?
6.77

# lookup: IC50 of Cc1c(C(=O)O)sc2nc(CC3=CCCCC3)[nH]c(=O)c12 [A-14]
1.64

What value of IC50 has been recorded for this entry: Cc1c(C(=O)O)sc2nc(Cc3ccc(F)c(Cl)c3)[nH]c(=S)c12 [A-29]
0.495

Returns the measured IC50 for the input compound. Input: O=C(O)CCc1ncc2c(=O)[nH]c3cc(C(F)(F)F)ccc3n12 [C-8]
6.37

Quick one: IC50 of Cc1c(C(=O)O)sc2nc(Cc3cccs3)[nH]c(=O)c12 [A-2] ?
21.1

If you can, please state the reported IC50 value of O=C(c1cc2[nH]c(=O)c3cnc(C4CCCCC4)n3c2cc1Cl)N1CCN(CCO)CC1 [C-6] .
7.54

Record request: IC50 value, item Cc1c(C(=O)O)sc2nc(Cc3ccccc3)[nH]c(=S)c12 [A-24]
0.642

Tell me the measured IC50 of O=C(O)CCc1ncc2c(=O)[nH]c3cc(Br)ccc3n12 [C-9] , please.
2.81

What does the data say about its IC50? Entry: Cc1c(C(=O)O)sc2nc(Cc3cc(F)ccc3F)[nH]c(=O)c12 [A-12]
19.8

Consider the compound Cc1c(C(=O)O)sc2nc(Cc3cccc(Br)c3)[nH]c(=O)c12 [A-5] and give its measured IC50.
4.43
